Recorded values, source the nanobody polyreactivity screen of Harvey et al. (2022).

EXPERIMENT_NOTES: yeast display, Sf9 membrane polyspecificity reagent, FACS + sequencing; frameworks hold sequencing errors
ASSAY_READOUT: polyreactivity (PSR sort gate)

Consider the worked cases shown below.
Lab note: measured polyreactivity (PSR sort gate) of QVQLVESGGGLVQAGGSLRLSCADSGFIFSLYAMGWYRQAPGKERELVAAISKRGGSTNYADSVKGRFTISRDYAKNTVYLQMNSLKPEDTAVYYCAKARPGFLYDHWVQGTQVTVSS was high polyreactivity

The sequence listed as QVQLVESGGGLVQAGGSLRLSCAASGINFGSNAMGWYRQAPGKERELVAAISKRGGNTYYADSVKGRFTISRDNAKNTVYLQMNSLKPEYTAVYYCATQQYLYAQKSYVEMDYWGQGTQVSVSS has a reported polyreactivity (PSR sort gate) of high polyreactivity

Field polyreactivity (PSR sort gate) (entry QVQLVESGGGLVQAGGSLRLTCAASGRTFHAYVMGWYRQAPGKERELVADISSGGDTYADSVKGRFTISRDNAKNTVYLQMNSLKPEDTAVYYCAVDVIQDESGYWGQGTQVTVSS ) reads low polyreactivity

Short answer for QVQLVESGGGLVQAGGSLRLSCAASGRIFRHNAMGWYRQAPGKESELVAAISGGGTTYYADSVKGRFTISRDNAKNTVYLQMNSLKPEDTAVYYCAARRRGSVGVGYAYPYNYWGQGTQVTVSS : polyreactivity (PSR sort gate) was high polyreactivity

Next sequence, please.
The sequence listed as QVQLVESGGGLVQAGGSLRLSSAASGSTLVYYDRGWYRQAPGKERELVATITGTDSTYYADSVKGRFTISRDNAKNTVYLQMNSLKPVDTADCAADRAASRPVYDYWGQGTQVTVSS has a reported polyreactivity (PSR sort gate) of low polyreactivity
